test.details: Cytotoxicity against human HeLa67 cell after 3 days by XTT assay
Format: cell-based
protocol.conditions: HeLa67 cells
result.type: CC50 at 72 h

O=C(N[C@H]1CCCC[C@@H]1NC(=O)c1ccccc1)C(=O)c1c[nH]c2cccc(F)c12 (relative stereo): > 300 µM
CN(CCN(C)C(=O)c1ccccc1)C(=O)C(=O)c1c[nH]c2cccc(F)c12: > 300 µM
O=C(NCCNC(=O)c1ccccc1)C(=O)c1c[nH]c2cccc(F)c12: > 300 µM

For each listed entry, give its CC50 at 72 h.
1. O=C(C(=O)N1CC2CC1CN2C(=O)c1ccccc1)c1c[nH]c2cccc(F)c12 (centres undefined)
2. O=C(C(=O)N1CCCN(C(=O)c2ccccc2)CC1)c1c[nH]c2cccc(F)c12
3. O=C(N[C@H]1CCCC[C@H]1NC(=O)c1ccccc1)C(=O)c1c[nH]c2cccc(F)c12 (relative stereo)

Result block:
1. > 300 µM
2. > 300 µM
3. 65 µM

For each listed entry, give its CC50 at 72 h.
1. O=C(NC1CCCC(NC(=O)c2ccccc2)C1)C(=O)c1c[nH]c2cccc(F)c12 (centres undefined)
2. CN(CCCN(C)C(=O)c1ccccc1)C(=O)C(=O)c1c[nH]c2cccc(F)c12
3. O=C(NCCCNC(=O)c1ccccc1)C(=O)c1c[nH]c2cccc(F)c12

Result block:
1: > 300 µM; 2: > 300 µM; 3: > 300 µM
